Target: Human BCMA (human) (UniProt Q02223)
Experiment: SPR, IgG immobilised, huBCMA analyte, 25 C
measurement-name: koff (s⁻¹)

• L1.GDF/L3.NY/H3.AP (antibody, V domains shown) VH: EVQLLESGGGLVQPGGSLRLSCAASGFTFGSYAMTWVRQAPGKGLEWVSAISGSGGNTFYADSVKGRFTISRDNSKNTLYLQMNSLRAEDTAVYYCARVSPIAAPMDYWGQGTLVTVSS VL: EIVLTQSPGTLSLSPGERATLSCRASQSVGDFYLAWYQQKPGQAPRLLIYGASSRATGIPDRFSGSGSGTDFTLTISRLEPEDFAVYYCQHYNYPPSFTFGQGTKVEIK = 0.00141
